Exercise: for every item that follows, state its recorded Activity.
Molecular target: UniProt:A5A4K8
Sequence (A5A4K8 as listed by the source): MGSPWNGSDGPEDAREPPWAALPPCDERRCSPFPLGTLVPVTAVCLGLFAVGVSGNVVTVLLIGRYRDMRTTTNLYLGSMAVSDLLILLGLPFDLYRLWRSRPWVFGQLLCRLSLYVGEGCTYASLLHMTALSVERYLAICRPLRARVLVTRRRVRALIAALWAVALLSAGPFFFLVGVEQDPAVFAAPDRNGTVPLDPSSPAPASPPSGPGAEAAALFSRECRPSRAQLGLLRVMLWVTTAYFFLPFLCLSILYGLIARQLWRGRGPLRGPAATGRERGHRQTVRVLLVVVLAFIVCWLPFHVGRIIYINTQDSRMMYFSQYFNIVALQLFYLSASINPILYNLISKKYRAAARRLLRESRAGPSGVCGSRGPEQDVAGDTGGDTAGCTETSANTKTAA
Experiment: Agonist activity at motilin receptor in rabbit smooth muscle assessed as tachyphylaxis at EC90 concentration after 4th dose
Format: functional
Value expressed in %; do not type the unit.

Prompt line: Need Activity of `CC[C@H]1OC(=O)[C@H](C)[C@@H](O[C@H]2C[C@@](C)(OC)[C@@H](O)[C@H](C)O2)[C@H](C)[C@@H](O[C@@H]2O[C@H](C)C[C@H](N(C)C(C)C)[C@H]2O)[C@](C)(O)C[C@@H](C)[C@H](OCC(=O)NCCO)[C@H](C)[C@@H](O)[C@]1(C)O` , thanks.
Response line: 87

Prompt line: Need Activity of `CC[C@H]1OC(=O)[C@H](C)[C@@H](O[C@H]2C[C@@](C)(OC)[C@@H](O)[C@H](C)O2)[C@H](C)[C@@H](O[C@@H]2O[C@H](C)C[C@H](N(C)C(C)C)[C@H]2O)[C@](C)(O)C[C@@H](C)[C@H](OCC(=O)NC)[C@H](C)[C@@H](O)[C@H]1C` , thanks.
Response line: 86

Prompt line: Need Activity of `CC[C@H]1OC(=O)[C@H](C)[C@@H](O[C@H]2C[C@@](C)(OC)[C@@H](O)[C@H](C)O2)[C@H](C)[C@@H](O[C@@H]2O[C@H](C)C[C@H](N(C)C(C)C)[C@H]2O)[C@](C)(O)C[C@@H](C)[C@H](OCC(=O)NC2CCOCC2)[C@H](C)[C@@H](O)[C@]1(C)O` , thanks.
Response line: 88

* * *

Exercise: for every item that follows, state its recorded inhibition at 30 µM.
Molecular target: UniProt:Q12809
Sequence (Q12809 whole entry): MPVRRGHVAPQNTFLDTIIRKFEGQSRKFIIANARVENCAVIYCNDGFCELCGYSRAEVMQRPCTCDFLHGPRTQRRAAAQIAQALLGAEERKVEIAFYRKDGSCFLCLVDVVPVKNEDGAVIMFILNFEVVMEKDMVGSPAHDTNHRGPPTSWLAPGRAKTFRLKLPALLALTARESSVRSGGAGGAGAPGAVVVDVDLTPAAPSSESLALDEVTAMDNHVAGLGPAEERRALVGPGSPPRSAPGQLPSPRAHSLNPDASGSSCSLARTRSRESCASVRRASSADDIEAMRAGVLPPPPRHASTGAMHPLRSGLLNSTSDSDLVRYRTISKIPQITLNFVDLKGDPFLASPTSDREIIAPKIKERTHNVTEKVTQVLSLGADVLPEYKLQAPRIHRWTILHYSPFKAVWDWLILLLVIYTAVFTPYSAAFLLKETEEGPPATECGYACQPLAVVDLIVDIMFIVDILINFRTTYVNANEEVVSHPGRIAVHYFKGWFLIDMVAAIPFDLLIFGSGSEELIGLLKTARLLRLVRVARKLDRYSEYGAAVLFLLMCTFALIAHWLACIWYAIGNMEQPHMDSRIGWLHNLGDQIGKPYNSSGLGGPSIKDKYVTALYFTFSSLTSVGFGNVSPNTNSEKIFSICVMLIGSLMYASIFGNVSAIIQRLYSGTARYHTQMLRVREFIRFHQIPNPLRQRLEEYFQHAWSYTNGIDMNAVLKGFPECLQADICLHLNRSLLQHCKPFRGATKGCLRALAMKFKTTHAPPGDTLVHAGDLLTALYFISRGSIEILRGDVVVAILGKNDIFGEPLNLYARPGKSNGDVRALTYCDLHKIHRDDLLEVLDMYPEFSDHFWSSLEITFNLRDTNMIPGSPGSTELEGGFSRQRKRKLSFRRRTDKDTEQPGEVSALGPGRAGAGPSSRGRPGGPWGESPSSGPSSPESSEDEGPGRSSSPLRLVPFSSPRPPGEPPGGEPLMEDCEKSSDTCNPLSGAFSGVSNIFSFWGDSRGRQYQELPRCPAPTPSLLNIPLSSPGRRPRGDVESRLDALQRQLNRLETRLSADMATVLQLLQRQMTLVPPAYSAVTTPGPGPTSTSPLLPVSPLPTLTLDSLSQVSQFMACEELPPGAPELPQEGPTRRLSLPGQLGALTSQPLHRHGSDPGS
Experiment: Inhibition of human ERG expressed in HEK cells at 30 uM
Type: cell-based, HEK293
Conditions: HEK cells expressing human ERG
Value expressed in %; do not type the unit.

Prompt line: So what inhibition at 30 µM did `CC[C@H]1OC(=O)[C@H](C)[C@@H](O[C@H]2C[C@@](C)(OC)[C@@H](O)[C@H](C)O2)[C@H](C)[C@@H](O[C@@H]2O[C@H](C)C[C@H](N(C)C(C)C)[C@H]2O)[C@](C)(O)C[C@@H](C)[C@H](OCC(=O)NC2CC2)[C@H](C)[C@@H](O)[C@]1(C)O` get with UniProt:Q12809?
Response line: 23

Prompt line: So what inhibition at 30 µM did `CC[C@H]1OC(=O)[C@H](C)[C@@H](O[C@H]2C[C@@](C)(OC)[C@@H](O)[C@H](C)O2)[C@H](C)[C@@H](O[C@@H]2O[C@H](C)C[C@H](N(C)C(C)C)[C@H]2O)[C@](C)(O)C[C@@H](C)[C@H](OCCCCC(=O)NC)[C@H](C)[C@@H](O)[C@]1(C)O` get with UniProt:Q12809?
Response line: 3

Prompt line: So what inhibition at 30 µM did `CC[C@H]1OC(=O)[C@H](C)[C@@H](O[C@H]2C[C@@](C)(OC)[C@@H](O)[C@H](C)O2)[C@H](C)[C@@H](O[C@@H]2O[C@H](C)C[C@H](N(C)C(C)C)[C@H]2O)[C@](C)(O)C[C@@H](C)[C@H](OCC(=O)NCCOC)[C@H](C)[C@@H](O)[C@]1(C)O` get with UniProt:Q12809?
Response line: 33

Prompt line: So what inhibition at 30 µM did `CC[C@H]1OC(=O)[C@H](C)[C@@H](O[C@H]2C[C@@](C)(OC)[C@@H](O)[C@H](C)O2)[C@H](C)[C@@H](O[C@@H]2O[C@H](C)C[C@H](N(C)C(C)C)[C@H]2O)[C@](C)(O)C[C@@H](C)[C@H](O)[C@H](C)[C@@H](O)[C@]1(C)O` get with UniProt:Q12809?
Response line: 80

Prompt line: So what inhibition at 30 µM did `CC[C@H]1OC(=O)[C@H](C)[C@@H](O[C@H]2C[C@@](C)(OC)[C@@H](O)[C@H](C)O2)[C@H](C)[C@@H](O[C@@H]2O[C@H](C)C[C@H](N(C)C(C)C)[C@H]2O)[C@](C)(O)C[C@@H](C)[C@H](OCC(N)=O)[C@H](C)[C@@H](O)[C@]1(C)O` get with UniProt:Q12809?
Response line: 10

Prompt line: So what inhibition at 30 µM did `CC[C@H]1OC(=O)[C@H](C)[C@@H](O[C@H]2C[C@@](C)(OC)[C@@H](O)[C@H](C)O2)[C@H](C)[C@@H](O[C@@H]2O[C@H](C)C[C@H](N(C)C(C)C)[C@H]2O)[C@](C)(O)C[C@@H](C)[C@H](OCCCCCC(=O)NC)[C@H](C)[C@@H](O)[C@]1(C)O` get with UniProt:Q12809?
Response line: 13

Prompt line: So what inhibition at 30 µM did `CC[C@H]1OC(=O)[C@H](C)[C@@H](O[C@H]2C[C@@](C)(OC)[C@@H](O)[C@H](C)O2)[C@H](C)[C@@H](O[C@@H]2O[C@H](C)C[C@H](N(C)C3CCC3)[C@H]2O)[C@](C)(O)C[C@@H](C)[C@H](OCC(=O)NC)[C@H](C)[C@@H](O)[C@]1(C)O` get with UniProt:Q12809?
Response line: 12
